Assign control-subtracted net OSN firing rate to each entry below.
system: S. pallida pb1a-like; test: control-subtracted net OSN firing rate; higher = stronger neuronal activation; settings: odorant dilution (vol/vol): 10^-5
Could you write the number and then its unit?

Req: Could you tell me which control-subtracted net OSN firing rate is on file for CCCC(=O)OCC [ethyl butyrate] ?
Resp: 20.2 spikes/s

Req: Need control-subtracted net OSN firing rate, item CCC1CCC(=O)O1 (centres undefined)
Resp: 11.3 spikes/s

Req: Given C=CCN=C=S [allyl isothiocyanate] , state its recorded control-subtracted net OSN firing rate.
Resp: 5.56 spikes/s

Req: Quick one: control-subtracted net OSN firing rate for CCC/C=C/C=O [trans-2-hexenal] ?
Resp: 5.78 spikes/s

Where do these numbers come from? They come from the supplement of paper PMC11482750.
